Let's look at some compounds and their measured IC50.
target: PI3Kα (p110[H1047R]/p85) kinase (Homo sapiens, UniProt P42336, H1047R); assay: PI3Kα (p110[H1047R]/p85) kinase ADP-Glo Assay; conditions: 25 uM ATP
Sequence (P42336 whole entry H1047R, one chain of several): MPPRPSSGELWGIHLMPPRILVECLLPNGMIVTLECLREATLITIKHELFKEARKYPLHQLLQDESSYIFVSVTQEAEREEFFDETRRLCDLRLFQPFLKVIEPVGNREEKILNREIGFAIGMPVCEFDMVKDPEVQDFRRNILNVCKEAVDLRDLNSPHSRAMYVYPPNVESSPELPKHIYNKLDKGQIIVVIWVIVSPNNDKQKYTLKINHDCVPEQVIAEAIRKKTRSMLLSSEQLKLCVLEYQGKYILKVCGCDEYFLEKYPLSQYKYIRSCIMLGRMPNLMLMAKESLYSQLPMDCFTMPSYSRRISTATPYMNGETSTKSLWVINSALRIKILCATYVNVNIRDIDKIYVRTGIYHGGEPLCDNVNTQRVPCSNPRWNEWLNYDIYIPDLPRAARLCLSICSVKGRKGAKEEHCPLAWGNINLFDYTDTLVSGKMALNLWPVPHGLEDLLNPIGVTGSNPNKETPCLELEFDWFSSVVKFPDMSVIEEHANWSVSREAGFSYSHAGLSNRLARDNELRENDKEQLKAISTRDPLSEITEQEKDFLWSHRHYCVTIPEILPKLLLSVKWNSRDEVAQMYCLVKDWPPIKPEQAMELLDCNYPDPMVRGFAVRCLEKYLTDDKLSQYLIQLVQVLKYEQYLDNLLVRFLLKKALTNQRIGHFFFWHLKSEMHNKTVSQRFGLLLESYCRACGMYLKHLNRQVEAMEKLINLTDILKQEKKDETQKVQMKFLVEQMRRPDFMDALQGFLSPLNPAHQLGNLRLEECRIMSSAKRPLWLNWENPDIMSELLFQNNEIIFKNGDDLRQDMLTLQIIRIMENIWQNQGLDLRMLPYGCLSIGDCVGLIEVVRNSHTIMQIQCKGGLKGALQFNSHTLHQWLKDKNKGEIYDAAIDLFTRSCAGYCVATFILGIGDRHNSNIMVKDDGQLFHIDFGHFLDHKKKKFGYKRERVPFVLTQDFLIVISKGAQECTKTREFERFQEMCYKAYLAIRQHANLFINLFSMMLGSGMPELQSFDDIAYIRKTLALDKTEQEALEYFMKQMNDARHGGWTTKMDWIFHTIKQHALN
Give the quantity in nM, number only.

Known results for compounds:
compound: Cc1cc(C(C)Nc2ccccc2C(=O)O)c2cc(-c3ccccn3)n(C)c(=O)c2c1 (stereo not drawn)
unitSymbol: nM
IC50: 603
--
compound: Cc1cc(C(C)Nc2ccccc2C(=O)O)c2cc(-c3ccc(P(C)(C)=O)cc3)n(C)c(=O)c2c1 (stereo not drawn)
unitSymbol: nM
IC50: 2420
--
compound: Cc1cc(C(C)Nc2ccccc2C(=O)O)c2cc(C#Cc3cnn(C)c3)n(C)c(=O)c2c1 (stereo not drawn)
unitSymbol: nM
IC50: 304
--
compound: Cc1cc(C(C)Nc2ccccc2C(=O)O)c2cc(-c3ccc(C4(O)CCOCC4)cc3)n(C)c(=O)c2c1 (stereo not drawn)
unitSymbol: nM
IC50: 1030

Here is the next item to consider.
Query: Look up IC50 for this compound: Cc1cc(C(C)Nc2ccccc2C(=O)O)c2cc(-c3ccc(F)cc3)n(C3CCOC3)c(=O)c2c1 (stereo not drawn)
Reply: 416

---

Let's look at some molecules and their measured IC50.
target: PI3Kα (p110/p85) kinase (wild type, "WT") (Homo sapiens, UniProt P42336); experiment: PI3Kα (p110/p85) kinase ADP-Glo Assay; details: 25 uM ATP
Sequence (P42336 whole entry): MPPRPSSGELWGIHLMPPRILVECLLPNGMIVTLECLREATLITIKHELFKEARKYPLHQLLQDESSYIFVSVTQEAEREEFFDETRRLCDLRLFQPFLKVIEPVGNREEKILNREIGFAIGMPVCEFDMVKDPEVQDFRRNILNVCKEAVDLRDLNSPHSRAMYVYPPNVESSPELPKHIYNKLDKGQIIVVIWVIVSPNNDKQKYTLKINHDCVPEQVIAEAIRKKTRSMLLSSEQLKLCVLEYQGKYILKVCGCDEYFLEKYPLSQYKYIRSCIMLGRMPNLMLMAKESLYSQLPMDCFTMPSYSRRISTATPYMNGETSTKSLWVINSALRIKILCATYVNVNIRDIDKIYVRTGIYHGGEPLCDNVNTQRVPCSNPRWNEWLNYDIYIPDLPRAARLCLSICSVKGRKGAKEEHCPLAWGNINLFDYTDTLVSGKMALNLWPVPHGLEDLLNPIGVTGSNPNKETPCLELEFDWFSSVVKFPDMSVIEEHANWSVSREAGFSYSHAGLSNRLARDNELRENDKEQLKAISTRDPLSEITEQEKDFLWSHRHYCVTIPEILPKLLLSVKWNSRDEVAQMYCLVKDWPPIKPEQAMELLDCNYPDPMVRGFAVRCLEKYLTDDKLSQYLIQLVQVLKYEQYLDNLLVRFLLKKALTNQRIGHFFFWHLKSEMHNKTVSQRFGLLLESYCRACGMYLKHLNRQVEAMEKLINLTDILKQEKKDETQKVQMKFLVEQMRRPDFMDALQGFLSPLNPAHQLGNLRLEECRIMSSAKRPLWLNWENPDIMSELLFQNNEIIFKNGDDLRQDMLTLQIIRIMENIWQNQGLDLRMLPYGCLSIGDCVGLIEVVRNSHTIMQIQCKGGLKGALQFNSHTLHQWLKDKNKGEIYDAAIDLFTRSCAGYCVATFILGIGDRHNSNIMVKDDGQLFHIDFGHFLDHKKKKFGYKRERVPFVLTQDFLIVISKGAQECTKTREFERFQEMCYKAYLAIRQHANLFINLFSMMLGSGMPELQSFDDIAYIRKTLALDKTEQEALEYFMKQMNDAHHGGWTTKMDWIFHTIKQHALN
Sequence (P27986 whole entry partner): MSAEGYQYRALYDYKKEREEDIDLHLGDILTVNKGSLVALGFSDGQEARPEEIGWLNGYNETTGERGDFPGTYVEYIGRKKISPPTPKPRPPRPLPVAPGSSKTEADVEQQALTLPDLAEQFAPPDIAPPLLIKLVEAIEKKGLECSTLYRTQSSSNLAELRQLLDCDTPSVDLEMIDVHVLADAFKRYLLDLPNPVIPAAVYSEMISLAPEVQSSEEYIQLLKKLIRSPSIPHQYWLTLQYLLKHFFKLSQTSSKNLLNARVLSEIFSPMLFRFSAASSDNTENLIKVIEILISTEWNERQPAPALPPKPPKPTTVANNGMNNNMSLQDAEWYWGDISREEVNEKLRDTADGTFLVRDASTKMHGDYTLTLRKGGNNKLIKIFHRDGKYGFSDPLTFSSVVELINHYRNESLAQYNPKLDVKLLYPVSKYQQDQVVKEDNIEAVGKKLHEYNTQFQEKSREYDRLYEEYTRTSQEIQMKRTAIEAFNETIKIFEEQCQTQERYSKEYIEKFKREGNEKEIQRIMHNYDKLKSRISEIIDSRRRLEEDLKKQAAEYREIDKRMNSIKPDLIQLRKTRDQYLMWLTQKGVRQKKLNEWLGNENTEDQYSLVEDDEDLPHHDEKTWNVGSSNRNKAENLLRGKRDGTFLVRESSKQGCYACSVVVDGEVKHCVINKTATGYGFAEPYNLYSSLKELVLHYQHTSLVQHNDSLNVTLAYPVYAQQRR
Give the quantity in µM, number only.

Known results for molecules:
molecule: Cc1cc(C(C)Nc2ccccc2C(=O)O)c2cc(-c3ccc(C4(O)CCOCC4)cc3)n(C)c(=O)c2c1 (stereo not drawn)
unitSymbol: µM
IC50: 26.1
//
molecule: Cc1cc(C(C)Nc2ccccc2C(=O)O)c2cc(-c3ccc(N4CCC(C)(O)CC4)nc3)n(C)c(=O)c2c1 (stereo not drawn)
unitSymbol: µM
IC50: 20.5
//
molecule: Cc1cc([C@@H](C)Nc2ccccc2C(=O)O)c2cc(-c3cnc(C(C)(C)O)nc3)n(C)c(=O)c2c1
unitSymbol: µM
IC50: 13.6
//
molecule: Cc1cc(C(C)Nc2ccccc2C(=O)O)c2cc(-c3cccnc3)n(C)c(=O)c2c1 (stereo not drawn)
unitSymbol: µM
IC50: 12.5

Query: Identify the measured IC50 of Cc1cc([C@@H](C)Nc2ccccc2C(=O)O)c2cc(-c3ccc(-c4cnn(C)c4)cc3)n(C)c(=O)c2c1 for PI3Kα (p110/p85) kinase (wild type, "WT") (Homo sapiens, UniProt P42336).
Reply: 5.12

Query: Identify the measured IC50 of COc1ccc(-c2cc3c(C(C)Nc4ccccc4C(=O)O)cc(C)cc3c(=O)n2C)cc1 (stereo not drawn) for PI3Kα (p110/p85) kinase (wild type, "WT") (Homo sapiens, UniProt P42336).
Reply: 3.72

Query: Identify the measured IC50 of Cc1cc(C(C)Nc2ccccc2C(=O)O)c2cc(-c3ccc(CN4CCOCC4)nc3)n(C)c(=O)c2c1 (stereo not drawn) for PI3Kα (p110/p85) kinase (wild type, "WT") (Homo sapiens, UniProt P42336).
Reply: 65.9

Query: Identify the measured IC50 of COc1ccc(-c2cc3c(C(C)Nc4ccccc4C(=O)O)cc(C)cc3c(=O)n2C)cn1 (stereo not drawn) for PI3Kα (p110/p85) kinase (wild type, "WT") (Homo sapiens, UniProt P42336).
Reply: 6.86

Query: Identify the measured IC50 of Cc1cc(C(C)Nc2ccccc2C(=O)O)c2cc(-c3ccc(C(C)(C)O)cc3)n(C)c(=O)c2c1 (stereo not drawn) for PI3Kα (p110/p85) kinase (wild type, "WT") (Homo sapiens, UniProt P42336).
Reply: 10.4

---

Let's look at some compounds and their measured IC50.
system: WT cell line SK-BR-3; test: Cell Proliferation Assay (CellTiter-Glo), SK-BR-3; assay type: cell-based; settings: Homo sapiens, 72 h; SK-BR-3, 3 days treatment

Known results for compounds:
compound: Cc1cc(C(C)Nc2ccccc2C(=O)O)c2cc(-c3cnn(CC45CC6C[C@H](C4)C[C@H](C6)C5)c3C)n(C)c(=O)c2c1 (stereo partly shown)
IC50: > 10 µM
--
compound: Cc1cc(C(C)Nc2ccccc2C(=O)O)c2cc(-c3ccc(F)cc3)n(C3CCOCC3)c(=O)c2c1 (stereo not shown)
IC50: > 10 µM
--
compound: Cc1cc(C(C)Nc2ccccc2C(=O)O)c2cc(-c3ccc(F)cc3)n(C3COC3)c(=O)c2c1 (stereo not shown)
IC50: > 10 µM

Here is the next item to consider.
Query: Look up IC50 for this compound: Cc1cc(C(C)Nc2ccccc2C(=O)O)c2cc(-c3cccc4cn(C)nc34)n(C)c(=O)c2c1 (stereo not shown)
Reply: > 10 µM

---

molecular target: PI3Kα (p110/p85) kinase (wild type, "WT") (Homo sapiens); assay: PI3Kα (p110/p85) kinase ADP-Glo Assay; details: 25 uM ATP
reportedEndpoint: IC50

Known results for molecules:
molecule: Cc1cc(C(C)Nc2ccccc2C(=O)O)c2cc(-c3cncnc3)n(C)c(=O)c2c1 (centres unmarked)
IC50: 19.5 µM

molecule: CC#Cc1ccc(-c2cc3c(C(C)Nc4ccccc4C(=O)O)cc(C)cc3c(=O)n2C)cc1 (centres unmarked)
IC50: 9.45 µM

molecule: Cc1cc(C(C)Nc2ccccc2C(=O)O)c2cc(-c3ccn(-c4ccccc4)c3)n(C)c(=O)c2c1 (centres unmarked)
IC50: 6.95 µM

molecule: CC(Nc1ccccc1C(=O)O)c1cccc2c(=O)n(C)c(C#Cc3ccccc3)cc12 (centres unmarked)
IC50: 1.34 µM

molecule: Cc1cc(C(C)Nc2ccccc2C(=O)O)c2cc(-c3cncc(F)c3)n(C)c(=O)c2c1 (centres unmarked)
IC50: 9.81 µM

Query: Look up IC50 for this molecule: Cc1cc(C(C)Nc2ccccc2C(=O)O)c2cc(C3=CCN(c4ccccc4)CC3)n(C)c(=O)c2c1 (centres unmarked)
Reply: 11.1 µM

Query: Look up IC50 for this molecule: Cc1cc(C(C)Nc2ccccc2C(=O)O)c2cc(C#CC3CCCCC3)n(C)c(=O)c2c1 (centres unmarked)
Reply: > 100 µM

Query: Look up IC50 for this molecule: Cc1cc(C(C)Nc2ccccc2C(=O)O)c2cc(-c3ccc(F)cc3)n(CC#N)c(=O)c2c1 (centres unmarked)
Reply: 6.14 µM

Query: Look up IC50 for this molecule: Cc1cc(C(C)Nc2ccccc2C(=O)O)c2cc(C#Cc3ccccc3)n(C)c(=O)c2c1 (centres unmarked)
Reply: 2.36 µM

Query: Look up IC50 for this molecule: Cc1cc(C(C)Nc2ccccc2C(=O)O)c2cc(-c3cc(F)cc(F)c3)n(C)c(=O)c2c1 (centres unmarked)
Reply: 8.08 µM

Query: Look up IC50 for this molecule: Cc1cc(C(C)Nc2ccccc2C(=O)O)c2cc(NC(=O)c3ccccc3)n(C)c(=O)c2c1 (centres unmarked)
Reply: 39.2 µM

Query: Look up IC50 for this molecule: Cc1cc(C(C)Nc2ccccc2C(=O)O)c2cc(-c3ccc(F)cc3)n(-c3nccs3)c(=O)c2c1 (centres unmarked)
Reply: 14.2 µM

Query: Look up IC50 for this molecule: Cc1cc([C@H](C)Nc2ccccc2C(=O)O)c2cc(-c3ccccc3)n(C)c(=O)c2c1
Reply: > 100 µM

Query: Look up IC50 for this molecule: CCn1c(-c2ccc(F)cc2)cc2c(C(C)Nc3ccc(Cl)nc3C(=O)O)cc(C)cc2c1=O (centres unmarked)
Reply: 3.78 µM

Query: Look up IC50 for this molecule: Cc1cc(C(C)Nc2cccnc2C(=O)O)c2cc(-c3ccc(F)cc3)n(C)c(=O)c2c1 (centres unmarked)
Reply: 55.1 µM

Query: Look up IC50 for this molecule: Cc1cc(C(C)Nc2ccccc2C(=O)O)c2cc(/C=C/c3ccccc3)n(C)c(=O)c2c1 (centres unmarked)
Reply: 1.84 µM

Query: Look up IC50 for this molecule: Cc1cc(C(C)Nc2c(C(=O)O)sc3ccccc23)c2cc(-c3ccccc3)n(C)c(=O)c2c1 (centres unmarked)
Reply: 5.16 µM

---

target: PI3Kα (p110[H1047R]/p85) kinase (Homo sapiens, UniProt P42336, H1047R); assay: PI3Kα (p110[H1047R]/p85) kinase ADP-Glo Assay; type: biochemical; settings: ADP-Glo Assay IC50 ratio, 25 uM ATP
Let's look at some molecules and their measured selectivity: WT/H1047R.

molecule: Cc1cc(C(C)Nc2ccccc2C(=O)O)c2cc(-c3cccc(C(C)(C)C#N)c3)n(C)c(=O)c2c1 (stereo not shown) [Example 5]
endpointValue: 14.1
//
molecule: Cc1cc([C@H](C)Nc2ccccc2C(=O)O)c2cc(-c3cnc(C(C)(C)O)nc3)n(C)c(=O)c2c1 [Example 68]
endpointValue: 1.6
//
molecule: CC(Nc1ccccc1C(=O)O)c1cccn2c(=O)cc(-c3ccccc3)cc12 (stereo not shown) [Example 25]
endpointValue: 104.0

Here is the next item to consider.
Query: Look up selectivity: WT/H1047R for this molecule: Cc1cc(C(C)Nc2ccccc2C(=O)O)c2cc(-c3ccc4nn(C)cc4c3)n(C)c(=O)c2c1 (stereo not shown) [Example 19]
Reply: 21.1

Data provenance: patent US20260125346A1
